tested on: HCT-116 Colon; assay: tumor cell growth inhibitory activity, HCT-116 colon; format: cell-based, human; conditions: Table 6; HCT-116 colon tumor cells

{"columns": ["compound", "operator symbol", "HCT-116 Colon IC50 / µg/mL"],
 "data": [
  ["C=C1C[C@@H]2C[C@@H]3CCO[C@@H](O3)c3cccc(c3)/C=C/C[C@H]3O[C@@H](/C(C)=C/c4cccs4)[C@H](C)[C@@H](OC(=O)/C=C\\C[C@@H](C1)O2)[C@H]3C [Compound 28]", "=", 5.96],
  ["C=C1C[C@@H]2C[C@@H]3CCO[C@@H](O3)c3cccc(c3)/C=C/C[C@H]3O[C@@H](/C(C)=C/c4ncco4)[C@H](C)[C@@H](OC(=O)/C=C\\C[C@@H](C1)O2)[C@H]3C [Compound 27]", "=", 5.44],
  ["C=C1C[C@@H]2C[C@@H]3CCO[C@@H](O3)c3cccc(c3)/C=C/C[C@H]3O[C@@H](/C(C)=C/C#N)[C@H](C)[C@@H](OC(=O)/C=C/C[C@@H](C1)O2)[C@H]3C [Compound (E, E)-6]", ">", 6.25],
  ["C=C1C[C@@H]2C[C@@H]3CCO[C@@H](O3)c3cccc(c3)/C=C\\C[C@H]3O[C@@H](/C(C)=C/I)[C@H](C)[C@@H](OC(=O)/C=C/C[C@@H](C1)O2)[C@H]3C [Compound (E, Z)-24]", ">", 6.25],
  ["C=C1C[C@@H]2C[C@@H]3CCO[C@@H](O3)c3cccc(c3)/C=C/C[C@H]3O[C@@H](/C(C)=C/I)[C@H](C)[C@@H](OC(=O)/C=C\\C[C@@H](C1)O2)[C@H]3C [Compound (Z, E)-24]", ">", 6.25]
]}
